Values compiled from PubChem BioAssay AID1986.

# Lookup of reported inhibition keyed by entry
procedureDetails: inhibitors of HIV fusion peptide binding, primary screen, biochemical, uHTS, fluorescence dequenching (AID 1986)
testConditions: cell-free peptide binding, 30 min, at 20 µM, hits give high values
Hit rate of the full screen: of about 290,000 compounds, about 890 (0.31%) were called active. The full list was thinned out, with actives kept by preference.
property: inhibition (%)

[[record]]
molecule = "CCN(CC)c1ccc(-c2nc3cnccc3n2C)cc1"
property = "inhibition"
quantitativereadout = 0.4

[[record]]
molecule = "c1ccc(Oc2ncnc3sccc23)cc1"
property = "inhibition"
quantitativereadout = -1.5

[[record]]
molecule = "O=C(O)c1ccc(-n2ncc3c2/C(=C/c2cccc([N+](=O)[O-])c2)CC3)cc1"
property = "inhibition"
quantitativereadout = 66.7

[[record]]
molecule = "CC(=O)c1ccc(-n2nnnc2SCC(=O)Nc2sc(C)c(C)c2C#N)cc1"
property = "inhibition"
quantitativereadout = 6.6

[[record]]
molecule = "O=C(CN1CCC(Cc2ccccc2)CC1)N1CCc2ccccc2C1"
property = "inhibition"
quantitativereadout = 0.8

[[record]]
molecule = "Cc1cnc(CN(C)C(=O)c2ccc3oc(Cc4ccc(Cl)cc4)nc3c2)[nH]1"
property = "inhibition"
quantitativereadout = 0.2

[[record]]
molecule = "Cc1ccc(C)c2[nH]c(=O)c(CN(Cc3cccs3)C(=S)NCc3ccco3)cc12"
property = "inhibition"
quantitativereadout = 16.7

[[record]]
molecule = "Clc1ccc(-c2nnc(Sc3nc4ccccc4o3)c3ccccc23)cc1"
property = "inhibition"
quantitativereadout = -0.2

[[record]]
molecule = "Cc1cc(C)c(S(=O)(=O)/N=C2\\C=C(NS(=O)(=O)c3ccccc3)C(=O)c3ccccc32)c(C)c1"
property = "inhibition"
quantitativereadout = 68.3

[[record]]
molecule = "COc1ccc(NC(=O)c2ccsc2NC(C)=O)cc1"
property = "inhibition"
quantitativereadout = -0.1

[[record]]
molecule = "CC(NCCc1ccc(S(N)(=O)=O)cc1)C(=O)NCCc1ccc(F)cc1 (configuration not stated)"
property = "inhibition"
quantitativereadout = 0.6

[[record]]
molecule = "O=c1c(Cl)c2oc3ccccc3nc-2c2ccccc12"
property = "inhibition"
quantitativereadout = 50.8

[[record]]
molecule = "O=S(=O)(NCc1ccccc1F)NCc1ccccc1F"
property = "inhibition"
quantitativereadout = -1.9

[[record]]
molecule = "CCn1cnc2scc(-c3ccc(OC)cc3)c2c1=O"
property = "inhibition"
quantitativereadout = 2

[[record]]
molecule = "CCS(=O)(=O)C1=NN2C(=N)/C(=C\\c3ccc(OC(=O)c4ccco4)c(OC)c3)C(=O)N=C2S1"
property = "inhibition"
quantitativereadout = 34.9

[[record]]
molecule = "O=C(O)C(Cc1ccccc1)N1C(=O)/C(=C/C=C/c2ccco2)SC1=S (configuration not stated)"
property = "inhibition"
quantitativereadout = 69.2

[[record]]
molecule = "CCCN(C(=O)COc1ccc(Cl)cc1Cl)c1c(N)n(Cc2ccccc2)c(=O)[nH]c1=O"
property = "inhibition"
quantitativereadout = 5.9

[[record]]
molecule = "O=C(O)CC(C(=O)O)N1C(=O)/C(=C/C=C/c2ccco2)SC1=S (configuration not stated)"
property = "inhibition"
quantitativereadout = 65.6

[[record]]
molecule = "O=C(O)c1c2c(nc3ccccc13)/C(=C/c1cccc([N+](=O)[O-])c1)CCC2"
property = "inhibition"
quantitativereadout = 2.3

[[record]]
molecule = "CC1(C)Cc2c(sc(NC(=S)NC(=O)c3ccccc3)c2C(=O)O)CO1"
property = "inhibition"
quantitativereadout = 2.8

[[record]]
molecule = "CCOc1cc(/C=C2/C(=N)N3N=C(CC)SC3=NC2=O)ccc1OC(=O)c1ccco1"
property = "inhibition"
quantitativereadout = 12.4

[[record]]
molecule = "CC(=O)Nc1ccc(C(=O)N/N=C/C2CC3C=CC2C3)cc1 (configuration not stated)"
property = "inhibition"
quantitativereadout = -0.7

